src = patent US20190185537A1

# cAMP EC50 (assay 2, 3.2% rat serum albumin) per entry
- system: rat glucagon receptor (rat, UniProt P30082 27-485)
- Sequence (P30082 27-485): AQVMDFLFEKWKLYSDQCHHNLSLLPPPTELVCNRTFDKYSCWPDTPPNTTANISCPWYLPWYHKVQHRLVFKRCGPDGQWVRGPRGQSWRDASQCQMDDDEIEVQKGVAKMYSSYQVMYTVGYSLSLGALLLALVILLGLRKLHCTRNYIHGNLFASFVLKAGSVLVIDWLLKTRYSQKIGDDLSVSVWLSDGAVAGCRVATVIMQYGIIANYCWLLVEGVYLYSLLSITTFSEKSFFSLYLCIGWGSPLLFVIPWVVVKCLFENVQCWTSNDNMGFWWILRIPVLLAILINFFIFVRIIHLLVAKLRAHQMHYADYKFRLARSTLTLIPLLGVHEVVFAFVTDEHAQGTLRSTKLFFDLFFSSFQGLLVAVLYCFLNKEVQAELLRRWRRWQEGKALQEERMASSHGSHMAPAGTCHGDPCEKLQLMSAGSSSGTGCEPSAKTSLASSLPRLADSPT
- experimental_details: cell-based or functional assay
The reply should be a number in nM, with the unit left off.

// solved cases for cAMP EC50 (assay 2, 3.2% rat serum albumin) follow
HSQGTFTSDKSKYLEGQAAKEFIAWLEKGR (X10 = K(gE-palm); C-terminal amide) [G812]; 14.1
HSQGTFTSDKSSYLDSRSARDFVAWLEAGG (X10 = K(gE-palm); C-terminal amide) [G865]; 87.1
HSQGTFTSDKSRYLDSRSARDFVAWLEAGG (X10 = K(gE-palm); C-terminal amide) [G849]; 4.05

(Q) Requested field: cAMP EC50 (assay 2, 3.2% rat serum albumin). Item: HSQGTFTSDKSSYLDSRRARDFVAWLEAGG (X10 = K(gE-palm); C-terminal amide) [G796]
(A) 2
